- assay.method.text: in vitro
- condition.summary: African green monkey
recorded.endpoint: CC50

Worked set:
{"mol": "Cc1cc2ncc(-c3ccc(OC(C)C)cc3)n2cc1-c1ccc(C(C)(C)O)cc1", "recorded.endpoint": "CC50", "assay.value": "3.87 µM"}
{"mol": "CCc1cc2nnn(-c3ccc(OC(C)C)cc3)c2cc1-c1ccc(OC(C)C)cc1", "recorded.endpoint": "CC50", "assay.value": "3.59 µM"}
{"mol": "Cc1cc2ncc(-c3ccc(OC(C)(C)C)cc3)n2cc1-c1ccc(C(C)(C)O)cc1", "recorded.endpoint": "CC50", "assay.value": "4.32 µM"}

Exercise: Tell me measured CC50 for "COC(=O)c1cc2nnn(-c3ccc(OC(C)C)cc3)c2cc1-c1ccc(OC(C)C)cc1" please.
Key: > 100 µM
